Target: T1, RSV-F.mmh (Respiratory Syncytial Virus)
T1 construct: also called recombinant RSV-F; soluble monomeric RSV-F
Test: SPR (Biacore), mAb captured via Fc, soluble RSV-F.mmh injected, 25 C
readout name: Kd

binder: H1H3592P3 (antibody, V domains shown) VH: EVQLVESGGDLVQPGRSLRLSCVASGFTFDDYAMHWVRQAPGKGLEWVSGVSWSGSTVGYADSVKGRFTVSRDNAQKSLYLQMNSLRAEDTALYYCVKDAYKFNYYYYGLDVWGQGTTVTVSS VL: EIVMTQSPATLSVSPGERATLSCRASQTILSNLAWYLQKPGQAPRLLIYGASTRATGLPARFSGSGSGTEFTLTISSLQSEDFAVYYCQQYNNWPLTFGGGTKVEIK
recorded measurement: 8.43 nM
//
binder: H1H3604P (antibody, V domains shown) VH: QVQLVESGGGLVKPGGSLRLSCAASGFTFSDYYMTWIRQAPGRGLEWVSYISDTGSHLYYADSVRGRFTISRDNAKNSLYLQMNNLRAEDTAVYYCARDQDGEMELRFFDYWGQGTLVTVSS VL: EIVLTQSPATLSLSPGERGTLSCRASQSINNYLAWYQQKPGQAPRLLIFDASNRATGIPARFSGSGSGTDFTLTISRIEPEDFAVYYCQQRTNWPLTFGGGTKVEIK
recorded measurement: 30 nM
//
binder: H1H3565P (antibody, V domains shown) VH: QVQLVESGGGVVQPGRSLRLSCAASGFTFNSYGMHWVRQAPGKGLEWVTFIWSDGSNKYYLDSVKGRFTISRDNSKNTLYLQMNSLRAEDTAVYYCARSGLASYYYYGMDVWGQGTTVTVSS VL: DIQMTQSPSSLSASVGDRVTITCRASQGIRNDLGWYQQKPGKAPKRLIYGASSLQSGVPSRFSGSGSGTEFTLTISSLQPEDFATYSCLQHNSYPWTFGQGTKVEIK
recorded measurement: 3.01 nM
//
binder: H1H3583P (antibody, V domains shown) VH: QVQLVQSGAEVKKSGSSVKVSCKASGGTFSSYAISWVRQAPGQGLEWMGGIIPIFGTGNYAQKFQGRVTITTDESTSTAYMELSSLRSEDTAVYYCARDSSSSPRYYGMDVWGHGTTVTVSS VL: EIVLTQSPATLSLSPGERATLSCRASQSVTSYLAWYQQKPGQAPRLLIYDVSKRATGIPARFSGSGSGTDFTLTISSLEPEDFATYYCQQRSNWPPTFGQGTRLEIK
recorded measurement: 34.4 nM
//
binder: H1H3605P (antibody, V domains shown) VH: QVQLQESGPGLVKPSETLSLTCTVSGGFISNYYWSWIRQPPGKGLEWIGYIYYSGSTKYNPSLKSRVTISVDTSKNQFSLKLSSVSAADTAVYYCARDGVVAAAGPPYHYHYGLDVWGQGTTVTVSS VL: DIVMTQSPDSLAVSLGERATINCKSSQNLLYTSSNKNSLAWYQQKPGQPPELLIYWASTRESGVPDRFSGSGSGTDFILTISSLQAEDVAVYYCQQYYSSPWTFGQGTKVEIK
recorded measurement: 59 nM
